# Test system: Acinetobacter baumannii
# measurement.notes: MIC, compound in combination with a second agent (broth microdilution)
# Assay type: cell-based
# settings: 1:1 (wt:wt) combination with Rifampicin; MIC = total drug concentration; strain CCUG57249
Where a name gives a salt, the structure may show the parent alone. Numbered stars: 1 amine (or outer) side, 2 acyl side, 3 side chain; on linkers, the order of the positions; unused ones are H or OH. Bridge positions count the residues as written; N and C are the ends. Square brackets hold non-standard residues; d marks the D form. Peptide text beside a SMILES is read from it. ξ: configuration not given here. Acetyl(cis-4-NH-cyclohexyl) = O=C(C[C@H]1CC[C@@H](N[*:1])CC1)[*:2]; Thr(3ξ) = CC(O)[C@H](N)C(=O)O; Dab = NCC[C@H](N)C(=O)O
Listed molecules paired with reported MIC A. baumannii CCUG57249
Write the value in micrograms/mL as a bare number.

# molecule, MIC A. baumannii CCUG57249 / micrograms/mL
data = [
    ("CC(C)C[C@@H]1NC(=O)[C@@H](Cc2ccccc2)NC(=O)[C@H](CCN)NC(=O)[C@@H](NC(=O)[C@H](CCN)NC(=O)[C@@H](NC(=O)C(O)C2CCCCC2)C(C)O)CCNC(=O)[C@H](C(C)O)NC(=O)[C@H](CCN)NC(=O)[C@H](CCN)NC1=O (mixture of isomers)", 0.5),
]

Input: Can you look up the measured MIC A. baumannii CCUG57249 of CC(C)C[C@@H]1NC(=O)[C@@H](Cc2ccccc2)NC(=O)[C@H](CCN)NC(=O)[C@@H](NC(=O)[C@H](CCN)NC(=O)[C@@H](NC(=O)C[C@H]2CC[C@@H](N)CC2)C(C)O)CCNC(=O)[C@H](C(C)O)NC(=O)[C@H](CCN)NC(=O)[C@H](CCN)NC1=O (stereo partly drawn) [Example 36, trifluoroacetate salt] ({Acetyl(cis-4-NH-cyclohexyl)}-[Thr(3ξ)][Dab][Dab][Dab][dF]L[Dab][Dab][Thr(3ξ)]; lactam 3-C) for me?
Output: 0.25

----------
# maps each entry to its MIC E. coli ATCC25922
# Tested on: Escherichia coli
# measurement.notes: MIC, sole activity (no second agent)
# Assay type: cell-based
# settings: in the absence of Rifampicin; strain ATCC25922
# Method: To evaluate the potency and spectrum of the compounds both alone and in combination with another agent, susceptibility testing was performed against up to four strains of each of the four Gram negative pathogens, Escherichia coli, Pseudomonas aeruginosa, Klebsiella pneumoniae and Acinetobacter baumannii. […] MICs were determined as described herein, except that a different supplier of Cation-adjusted MHB was used. […]
Bridge positions count the residues as written; N and C are the ends. Square brackets hold non-standard residues; d marks the D form. Peptide text beside a SMILES is read from it. * marks the point of attachment. ξ: configuration not given here. Cyclohexanoyl(cis-4-NH2) = N[C@H]1CC[C@@H](C(=O)*)CC1; Thr(3ξ) = CC(O)[C@H](N)C(=O)O; Dab = NCC[C@H](N)C(=O)O; Glycolyl = O=C(CO)*; Ahx = NCCCCCC(=O)O
Report the figure in micrograms/mL without appending any unit label.

Look over these answered cases.
# compound, MIC E. coli ATCC25922 [micrograms/mL]
measured = [
    ("CC(C)C[C@@H]1NC(=O)[C@@H](Cc2ccccc2)NC(=O)[C@H](CCN)NC(=O)[C@@H](NC(=O)[C@H](CCN)NC(=O)[C@@H](NC(=O)CCCCCN)C(C)O)CCNC(=O)[C@H](C(C)O)NC(=O)[C@H](CCN)NC(=O)[C@H](CCN)NC1=O (stereo partly shown) [Example 2, 6-Aminohexanoyl polymyxin B nonapeptide] (H-[Ahx][Thr(3ξ)][Dab][Dab][Dab][dF]L[Dab][Dab][Thr(3ξ)]; lactam 4-C)", 2),
    ("CC(C)C[C@@H]1NC(=O)[C@@H](Cc2ccccc2)NC(=O)[C@H](CCN)NC(=O)[C@@H](NC(=O)[C@H](CCN)NC(=O)[C@@H](NC(=O)CO)C(C)O)CCNC(=O)[C@H](C(C)O)NC(=O)[C@H](CCN)NC(=O)[C@H](CCN)NC1=O (stereo partly shown) [Example 8, Hydroxyacetyl polymyxin B nonapeptide] (Glycolyl-[Thr(3ξ)][Dab][Dab][Dab][dF]L[Dab][Dab][Thr(3ξ)]; lactam 3-C)", 32),
]

Consider now this further compound.
Input: Quick one: MIC E. coli ATCC25922 for CC(C)C[C@@H]1NC(=O)[C@@H](Cc2ccccc2)NC(=O)[C@H](CCN)NC(=O)[C@@H](NC(=O)[C@H](CCN)NC(=O)[C@@H](NC(=O)[C@H]2CC[C@@H](N)CC2)C(C)O)CCNC(=O)[C@H](C(C)O)NC(=O)[C@H](CCN)NC(=O)[C@H](CCN)NC1=O (stereo partly drawn) [Example 20] ({Cyclohexanoyl(cis-4-NH2)}-[Thr(3ξ)][Dab][Dab][Dab][dF]L[Dab][Dab][Thr(3ξ)]; lactam 3-C) ?
Output: 2
